- test_system: OCT2 (Homo sapiens, UniProt O15244)
- Sequence (O15244 whole entry S270A): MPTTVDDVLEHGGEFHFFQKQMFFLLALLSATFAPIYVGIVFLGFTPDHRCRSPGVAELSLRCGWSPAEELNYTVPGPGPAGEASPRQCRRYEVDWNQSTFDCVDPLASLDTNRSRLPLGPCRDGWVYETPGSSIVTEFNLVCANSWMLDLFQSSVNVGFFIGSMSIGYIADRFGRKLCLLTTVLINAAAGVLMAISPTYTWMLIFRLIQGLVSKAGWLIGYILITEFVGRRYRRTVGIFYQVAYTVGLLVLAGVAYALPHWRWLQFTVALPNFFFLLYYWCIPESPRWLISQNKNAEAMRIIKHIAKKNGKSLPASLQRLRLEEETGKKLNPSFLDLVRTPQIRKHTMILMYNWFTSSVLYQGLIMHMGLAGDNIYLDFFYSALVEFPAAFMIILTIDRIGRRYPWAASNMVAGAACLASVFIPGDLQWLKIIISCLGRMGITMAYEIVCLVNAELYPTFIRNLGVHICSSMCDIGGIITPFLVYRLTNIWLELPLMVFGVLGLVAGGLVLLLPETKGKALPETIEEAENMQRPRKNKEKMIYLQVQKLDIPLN
- assay_details: Stereoselective uptake into OCT2 (wild-type)-overexpressing HEK293 cells
- test_conditions: HEK293 cells overexpressing human OCT2; racemic substrate, two minutes; net uptake
endpoint_label: Vmax ± SEM

Prompt: What does the record list as Vmax ± SEM for NC[C@H](O)c1ccc(O)c(O)c1 [(R)-Norepinephrine] ?
Completion: 6603 ± 664 pmol × mg Protein^−1 × min^−1

Prompt: What does the record list as Vmax ± SEM for C[C@@H]1NCCc2cc(O)c(O)cc21 [Salsolinol-1, Salsolinol] ?
Completion: 9083 pmol × mg Protein^−1 × min^−1

Prompt: What does the record list as Vmax ± SEM for NC[C@@H](O)c1ccc(O)c(O)c1 [(S)-Norepinephrine] ?
Completion: 3042 ± 258 pmol × mg Protein^−1 × min^−1

Prompt: What does the record list as Vmax ± SEM for NC[C@H](O)c1ccccc1 [(R)-Bisnorephedrine] ?
Completion: 847 pmol × mg Protein^−1 × min^−1

Prompt: What does the record list as Vmax ± SEM for C[C@@H]1NCCc2cc(O)c(O)cc21 [Salsolinol-2, Salsolinol] ?
Completion: 9160 pmol × mg Protein^−1 × min^−1

Prompt: What does the record list as Vmax ± SEM for CNCC(O)c1ccc(O)c(OC)c1 (single isomer, unassigned) [Metanephrine-1, Metanephrine] ?
Completion: 1127 pmol × mg Protein^−1 × min^−1

Prompt: What does the record list as Vmax ± SEM for CNC[C@@H](O)c1ccc(O)c(O)c1 [(S)-Epinephrine] ?
Completion: 3993 ± 360 pmol × mg Protein^−1 × min^−1

Prompt: What does the record list as Vmax ± SEM for NC[C@@H](O)c1ccccc1 [(S)-Bisnorephedrine] ?
Completion: 602 pmol × mg Protein^−1 × min^−1

Prompt: What does the record list as Vmax ± SEM for CNCC(O)c1ccc(O)c(OC)c1 (single isomer, unassigned) [Metanephrine-2, Metanephrine] ?
Completion: 528 pmol × mg Protein^−1 × min^−1

Taken from paper PMC9599461.
